Target: Induced myeloid leukemia cell differentiation protein Mcl-1 (Homo sapiens, UniProt Q07820)
Sequence (Q07820 whole entry): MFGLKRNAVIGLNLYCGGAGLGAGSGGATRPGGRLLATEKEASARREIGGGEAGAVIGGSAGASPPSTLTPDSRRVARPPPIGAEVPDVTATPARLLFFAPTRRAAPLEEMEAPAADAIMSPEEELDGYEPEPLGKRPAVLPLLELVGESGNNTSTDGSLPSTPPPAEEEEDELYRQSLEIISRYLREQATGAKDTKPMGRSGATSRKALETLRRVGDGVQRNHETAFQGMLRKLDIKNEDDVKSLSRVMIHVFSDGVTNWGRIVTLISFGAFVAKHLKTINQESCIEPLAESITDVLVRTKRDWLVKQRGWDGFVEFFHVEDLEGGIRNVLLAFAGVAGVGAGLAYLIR
Assay: Binding affinity to MCL1 (unknown origin) assessed as inhibition of Mcl1-FAMbid protein-protein interaction after 1 min by fluorescence polarization assay
ASSAY_METRIC: Kd (nM)

>>> recorded_number("O=C(O)c1cc2ccccc2n1S(=O)(=O)c1ccc(OCc2cccc(Cl)c2)cc1")
480

Reference source: ChEMBL document CHEMBL4433198
